assay: Pharmacokinetics after oral administration in male rats; conditions: Sprague-Dawley, rat, in vivo, po, 30 mg/kg
endpointName: AUC(0-t) (µg·h/mL)
The response must be a number in µg·h/mL with no trailing unit.

# input Please report the recorded AUC(0-t) for CO[C@H]1/C=C/O[C@@]2(C)Oc3c(C)c(O)c4c(O)c(c5c(nc6cc(C)ccn65)c4c3C2=O)NC(=O)/C(C)=C\C=C\[C@H](C)[C@H](O)[C@@H](C)[C@@H](O)[C@@H](C)[C@H](OC(C)=O)[C@@H]1C [Rifaximin, reference compound] .
# output 0.197

###

test: Pharmacokinetics after intravenous administration in male rats; details: Sprague-Dawley, rat, in vivo, 1 mg/kg
endpointName: AUC(0-inf) (ng·h/mL)
The response must be a number in ng·h/mL with no trailing unit.

# input Please report the recorded AUC(0-inf) for CO[C@H]1/C=C/O[C@@]2(C)Oc3c(C)c(O)c4c(O)c(c5c(nc6cc(C)ccn65)c4c3C2=O)NC(=O)/C(C)=C\C=C\[C@H](C)[C@H](O)[C@@H](C)[C@@H](O)[C@@H](C)[C@H](OC(C)=O)[C@@H]1C [Rifaximin, reference compound] .
# output 1990
